Attribution: patent US10912839B2

- Assay notes: Ex vivo prodrug metabolism in HT1080 tumour homogenate (LC/MS/MS)
- Type: in vitro ADME, human
- Experimental conditions: human, tissue homogenate; HT1080 tumour homogenate; mean of four independent experiments; read-out: Tumour t½
Non-standard residues stand in square brackets, D forms with d. Residues, ends and D or L forms follow the SMILES beside them. *: point of attachment. NH(Colchicin-10-yl) = COc1cc2c(c(OC)c1OC)-c1ccc(N*)c(=O)cc1[C@@H](NC(C)=O)CC2; FITC = O=C1OC2(c3ccc(O)cc3Oc3cc(O)ccc32)c2ccc(NC(=S)*)cc21; hPhe = N[C@@H](CCc1ccccc1)C(=O)O; Cit = NC(=O)NCCC[C@H](N)C(=O)O; βAla = NCCC(=O)O
Property measured: half-life (min)

compound="COc1cc2c(c(OC)c1OC)-c1ccc(NC(=O)[C@H](Cc3ccc(O)cc3)NC(=O)[C@H](CC(C)C)NC(=O)[C@@H]3CCCN3C(=O)[C@H](CCc3ccccc3)NC(=O)CNC(=O)[C@H](CCCNC(N)=O)NC(=O)[C@H](CO)NC(=O)[C@H](CCCNC(=N)N)NC(=O)CCNC(=S)Nc3ccc4c(c3)C(=O)OC43c4ccc(O)cc4Oc4cc(O)ccc43)c(=O)cc1[C@@H](NC(C)=O)CC2 [ICT3097] ({FITC-βAla}-RS[Cit]G[hPhe]PLY-{NH(Colchicin-10-yl)})" property_measured=half-life observed_measurement=24
compound="COc1cc2c(c(OC)c1OC)-c1ccc(NC(=O)[C@H](Cc3ccc(O)cc3)NC(=O)[C@H](CC(C)C)NC(=O)[C@H](CC(=O)O)NC(=O)[C@H](CCc3ccccc3)NC(=O)CNC(=O)[C@H](CCCNC(N)=O)NC(=O)[C@H](CO)NC(=O)[C@H](CCCNC(=N)N)NC(=O)CCNC(=S)Nc3ccc4c(c3)C(=O)OC43c4ccc(O)cc4Oc4cc(O)ccc43)c(=O)cc1[C@@H](NC(C)=O)CC2 [ICT3055] ({FITC-βAla}-RS[Cit]G[hPhe]DLY-{NH(Colchicin-10-yl)})" property_measured=half-life observed_measurement=7
compound="COc1cc2c(c(OC)c1OC)-c1ccc(NC(=O)[C@H](Cc3ccc(O)cc3)NC(=O)[C@H](CC(C)C)NC(=O)[C@H](CC(N)=O)NC(=O)[C@H](CCc3ccccc3)NC(=O)CNC(=O)[C@H](CCCNC(N)=O)NC(=O)[C@H](CO)NC(=O)[C@H](CCCNC(=N)N)NC(=O)CCNC(=S)Nc3ccc4c(c3)C(=O)OC43c4ccc(O)cc4Oc4cc(O)ccc43)c(=O)cc1[C@@H](NC(C)=O)CC2 [ICT3078] ({FITC-βAla}-RS[Cit]G[hPhe]NLY-{NH(Colchicin-10-yl)})" property_measured=half-life observed_measurement=11
compound="COc1cc2c(c(OC)c1OC)-c1ccc(NC(=O)[C@H](Cc3ccc(O)cc3)NC(=O)[C@H](CC(C)C)NC(=O)[C@H](CO)NC(=O)[C@H](CCc3ccccc3)NC(=O)CNC(=O)[C@H](CCCNC(N)=O)NC(=O)[C@H](CO)NC(=O)[C@H](CCCNC(=N)N)NC(=O)CCNC(=S)Nc3ccc4c(c3)C(=O)OC43c4ccc(O)cc4Oc4cc(O)ccc43)c(=O)cc1[C@@H](NC(C)=O)CC2 [ICT3054] ({FITC-βAla}-RS[Cit]G[hPhe]SLY-{NH(Colchicin-10-yl)})" property_measured=half-life observed_measurement=9
compound="COc1cc2c(c(OC)c1OC)-c1ccc(NC(=O)[C@H](Cc3ccc(O)cc3)NC(=O)[C@H](CC(C)C)NC(=O)[C@H](C)NC(=O)[C@H](CCc3ccccc3)NC(=O)CNC(=O)[C@H](CCCNC(N)=O)NC(=O)[C@H](CO)NC(=O)[C@H](CCCNC(=N)N)NC(=O)CCNC(=S)Nc3ccc4c(c3)C(=O)OC43c4ccc(O)cc4Oc4cc(O)ccc43)c(=O)cc1[C@@H](NC(C)=O)CC2 [ICT3053] ({FITC-βAla}-RS[Cit]G[hPhe]ALY-{NH(Colchicin-10-yl)})" property_measured=half-life observed_measurement=17
compound="COc1cc2c(c(OC)c1OC)-c1ccc(NC(=O)[C@H](Cc3ccc(O)cc3)NC(=O)[C@H](CC(C)C)NC(=O)[C@H](Cc3ccc(O)cc3)NC(=O)[C@H](CCc3ccccc3)NC(=O)CNC(=O)[C@H](CCCNC(N)=O)NC(=O)[C@H](CO)NC(=O)[C@H](CCCNC(=N)N)NC(=O)CCNC(=S)Nc3ccc4c(c3)C(=O)OC43c4ccc(O)cc4Oc4cc(O)ccc43)c(=O)cc1[C@@H](NC(C)=O)CC2 [ICT-2588] ({FITC-βAla}-RS[Cit]G[hPhe]YLY-{NH(Colchicin-10-yl)})" property_measured=half-life observed_measurement=33
compound="COc1cc2c(c(OC)c1OC)-c1ccc(NC(=O)[C@H](Cc3ccc(O)cc3)NC(=O)[C@H](CC(C)C)NC(=O)[C@H](CC(C)C)NC(=O)[C@H](CCc3ccccc3)NC(=O)CNC(=O)[C@H](CCCNC(N)=O)NC(=O)[C@H](CO)NC(=O)[C@H](CCCNC(=N)N)NC(=O)CCNC(=S)Nc3ccc4c(c3)C(=O)OC43c4ccc(O)cc4Oc4cc(O)ccc43)c(=O)cc1[C@@H](NC(C)=O)CC2 [ICT3080] ({FITC-βAla}-RS[Cit]G[hPhe]LLY-{NH(Colchicin-10-yl)})" property_measured=half-life observed_measurement=48
